molecular target: Human Fc (human); experiment: ELISA, negative control

| binder | optical density / OD |
| --- | --- |
| 368_H04 (antibody, V domains shown) VH: EVQLLESGGGLVQPGGSLRLSCAASGFTFSSYSMNWVRQAPGKGLEWVAGINYNSGYKGYADSVKGRFTISRDNSKNTLYLQMNSLRAEDTAVYYCAKSANWHDTHLDYWGQGTLVTVSS VL: DIQMTQSPSSLSASVGDRVTITCRASQSIVSYVNWYQQKPGKAPKLLIYAATSRASGVPSRFSGSGSGTDFTLTISSLQPEDFATYYCQQSYDSPLTFGGGTKVEIK | 0.319 |
| 370_G09 (antibody, V domains shown) VH: EVQLLESGGGLVQPGGSLRLSCAASGFTFSSYGMNWVRQAPGKGLEWVAGINYNGGYKSYADSVKGRFTISRDNSKNTLYLQMNSLRAEDTAVYYCARSANWHDTALDYWGQGTLVTVSS VL: DIQMTQSPSSLSASVGDRVTITCRASQSILSYVNWYQQKPGKAPKLVIYAATSRASGVPSRFSGSGSGTDFTLTISSLQPEDFATYYCQQSYESPLTFGGGTKVEIK | 0.393 |

The measurements presented in this section are drawn from patent US20210380703A1.
